Reported pKd is given for each of the following sequences.
# target: HLA-A*03:01
# methodSummary: IEDB peptide-MHC binding, purified MHC/competitive/radioactivity; filed as Kd, often an IC50 or EC50 that approximates it; bounds were set here for any values at or beyond the usual limits of such assays
# reportedConditions: source organism: SARS coronavirus Tor2
pKd: −log10 of the molar value.
readoutKind: pKd

{"biosequence": "VLHDIGNPK", "readoutKind": "pKd", "comparisonOperator": "=", "resultValue": 7.67}
{"biosequence": "TVAYFNMVY", "readoutKind": "pKd", "comparisonOperator": "=", "resultValue": 7.38}
{"biosequence": "DTVWEVQGYK", "readoutKind": "pKd", "comparisonOperator": "=", "resultValue": 7.23}
{"biosequence": "AVIIRGHLR", "readoutKind": "pKd", "comparisonOperator": "≤", "resultValue": 4.48}
{"biosequence": "WFSQRGGSYK", "readoutKind": "pKd", "comparisonOperator": "=", "resultValue": 6.72}
{"biosequence": "GVIRSIFAR", "readoutKind": "pKd", "comparisonOperator": "=", "resultValue": 5.89}
{"biosequence": "AQALNTLVK", "readoutKind": "pKd", "comparisonOperator": "=", "resultValue": 6.61}
{"biosequence": "NLCTHSFRK", "readoutKind": "pKd", "comparisonOperator": "=", "resultValue": 5.61}
{"biosequence": "NATFFIFNK", "readoutKind": "pKd", "comparisonOperator": "=", "resultValue": 6.41}
{"biosequence": "CLFDRYFKY", "readoutKind": "pKd", "comparisonOperator": "=", "resultValue": 8.84}
{"biosequence": "TTTIKPVSYK", "readoutKind": "pKd", "comparisonOperator": "=", "resultValue": 7.94}

----------
# target: HLA-A*68:02
# methodSummary: IEDB peptide-MHC binding, purified MHC/direct/fluorescence; filed as Kd, often an IC50 or EC50 that approximates it; bounds were set here for any values at or beyond the usual limits of such assays
# reportedConditions: source organism: Ravn virus - Ravn, Kenya, 1987
pKd: −log10 of the molar value.

{"biosequence": "DLEKYNLAF", "target": "HLA-A*68:02", "pKd": "≤ 4.70"}

----------
Listed below: pKd values for each entry.
# target: HLA-B*15:01
# methodSummary: IEDB peptide-MHC binding, purified MHC/direct/fluorescence; filed as Kd, often an IC50 or EC50 that approximates it; bounds were set here for any values at or beyond the usual limits of such assays
# reportedConditions: source organism: Camelpox virus M-96
pKd: −log10 of the molar value.

{"biosequence": "NYFNRMFHF", "comparisonOperator": "≤", "pKd": 4.70}
{"biosequence": "SQIETGTPF", "comparisonOperator": "=", "pKd": 7.85}

----------
# target: HLA-A*03:01
# methodSummary: IEDB peptide-MHC binding, purified MHC/competitive/radioactivity; filed as Kd, often an IC50 or EC50 that approximates it; bounds were set here for any values at or beyond the usual limits of such assays
# reportedConditions: source organism: Mammarenavirus whitewaterense

{"biosequence": "PMPCMINDTH", "Kd": "≥ 70 µM"}
{"biosequence": "VCFWSTLFY", "Kd": "0.138 µM"}

----------
# target: HLA-B*39:01
# methodSummary: IEDB peptide-MHC binding, purified MHC/competitive/fluorescence; filed as Kd, often an IC50 or EC50 that approximates it; bounds were set here for any values at or beyond the usual limits of such assays
# reportedConditions: source organism: Human immunodeficiency virus 1
pKd: −log10 of the molar value.

{"biosequence": "DIKDTKEAL", "pKd": "≤ 4.70"}
